Test system: MS2 coat protein
TEST_DESCRIPTION: apparent KD of MS2 coat protein, switch OFF state (with FMN for OFF switches, without FMN for ON switches); designed switch direction (-1 OFF switch, 1 ON switch): -1; higher = weaker reporter binding
ASSAY_CONDITIONS: FMN input: 0 or 200 uM; Eterna round: R93 (includes R88 designs)
Records here are stratified by apparent KD of MS2 coat protein; strata: low bracket = under 30 nM, middle bracket = from 30 nM up to 60 nM, high bracket = 60 nM and over

>  <SEQUENCE_STRING>
AAAAAACAUGAGGAUCACCCAUGUGAGGAUAUGACGUAAAUAAAGAAAGAAGAAAUCGUCAGAAGGCACACCUA [Disincluded 2 (MS2 Riboswitches)]

>  <TESTED_TARGET>
MS2 coat protein

>  <ANSWER_LABEL>
middle bracket

$$$$
>  <SEQUENCE_STRING>
AAAAGGAAAGGAUAUGCAGACUGGGUCACCCAGAUGUAUGAACAUGAGGAUCACCCAUGUAGAAGGUUCAAAAG [Ribiquon]

>  <TESTED_TARGET>
MS2 coat protein

>  <ANSWER_LABEL>
low bracket

$$$$
>  <SEQUENCE_STRING>
CUCAUGUCAGGAUAUCAGUAGUAAAAAAAUAAAAUUACUACUGAGAAGGGACAUGAGGAUCACCCAUGUCAAAA [EX4 363: Super Stable 63]

>  <TESTED_TARGET>
MS2 coat protein

>  <ANSWER_LABEL>
low bracket

$$$$

Q. Given AAAGGACGAGGAUAUACAUGAGGAUCACCCAUGUAAAAAACAUAAUAAAAGAACUUGUGUAGAAGGCGUCCAAA [Meechl Ex3 2 R2 v6] , name the class its apparent KD of MS2 coat protein places it in.
A. high bracket

Q. Given AAAAAACAUGAGGAUCACCCAUGUAAGGAUAUGCUCGUGCGAAAAGCACAAAAAAAGAGCAGAAGGUACAAAAA [66%, Wbt, 39] , name the class its apparent KD of MS2 coat protein places it in.
A. middle bracket

Q. Given AGAAAACAUGAGGAUCACCCAUGUGAGGAUAUCGAUGUCCAAAAAAAAGUGCGGGACUCGAGAAGGCACUUGGG , name the class its apparent KD of MS2 coat protein places it in.
A. middle bracket

Q. Given AACUGACAUGAGGAUCACCCAUGUCAGGAUAUGCUUCAUAAAAAAAAAAAAAAAUGAUGCAGAAGGGACAUGGG [Design 32 :P Sub-opt 8] , name the class its apparent KD of MS2 coat protein places it in.
A. high bracket

Q. Given AAAAAGCUAGGAUAUACGAAAAAAAAGGGUAGAAAAAAAACACAUGAGGAUCACCCAUGUAGAAGGAGCAAAAA [Mat - Exclusion 2 - Tesla mod - D33] , name the class its apparent KD of MS2 coat protein places it in.
A. high bracket

Q. Given AAGAAGCGAGGAUAUACAUGAAAGAAAGAAAAGAAAAGAAAACAUGAGGAUCACCCAUGUAGAAGGCGCAAGAA [EteRNA is fun!] , name the class its apparent KD of MS2 coat protein places it in.
A. low bracket

Q. Given GCUGGCGUAGGAUAUACAUGAGGAUCACCCAUGUGAGAGAAAAAAGUGAGAAAGAAAAGUAGAAGGACGUUAGG [salish99-ex3-116] , name the class its apparent KD of MS2 coat protein places it in.
A. high bracket

Q. Given AAAAGACAUGAGGAUCACCCAUGUCAGGAUAUGACUUGAAAAAAAAAAAAAAAACAUGUCAGAAGGGACAUGAA [Design 45: Sub-opt D] , name the class its apparent KD of MS2 coat protein places it in.
A. low bracket
